- Tested on: Plasmodium berghei
- assay-info: Screen against P. berghei liver stage (PbLuc), transformed with Luciferase, at 10uM
- Type: functional, HepG2
- stated-conditions: tested at 10 uM
Among all 69,000 compounds or so, about 8,600 (12%) showed an effect of 50% or more. This excerpt belongs to a sample that is enriched for strong results.
Assign Yes whenever INHIBITION does not fall below 40%; assign No whenever it does.

1. CC(C)NC(=O)N1CCC2(CC1)Cc1ccccc1CN(C)C2=O	No
2. Cn1cccc1C(O)CNC(=O)c1ccc(C(F)(F)F)cc1 (configuration not stated)	No
3. Cc1ccc(C)c(OCC(=O)NC2CCN(c3ccccn3)CC2)c1	No
4. CCOc1ncccc1C(=O)N(C)C1CCN(c2ccccn2)CC1	No
5. CC1CCN(C(=O)c2cccc(CN3CCOCC3)c2)CC1	No
6. Cc1ccccc1CC(=O)N(C)C1CCN(c2ccccn2)CC1	Yes
7. C[C@H]1CN(C(=O)c2ccc[nH]2)C[C@@]12CCN(c1ccsc1)C2=O	No
8. CN(C1CCCN(c2ccccn2)C1)S(=O)(=O)N1CCOCC1 (configuration not stated)	No
9. CN(C(=O)Cc1cccs1)C1CCN(c2ccccn2)CC1	Yes
10. COc1ccccc1CNC(=O)c1[nH]ncc1Cl	Yes
11. CN(C(=O)CNc1ccc(C#N)cc1)C1CCN(c2ccccn2)CC1	No
12. COc1cc(CN2C[C@H](OC)[C@]3(CCCO3)C2)ccc1F	No
